Tested on: Bacteroides gingivalis
Assay type: biochemical
CONDITION: strain 1021; β-naphthylamine liberated after 60 minutes, 37° C.
Peptide text beside a SMILES is read from it. * marks the point of attachment. βNA = c1ccc2cc(N*)ccc2c1
Measured Aminopeptidase activity accompanies every entry in the list below.
Reply numerically in nmol, unit not repeated.

# COMPOUND, Aminopeptidase activity / nmol
data = [
    ("CC(C)C[C@H](N)C(=O)NCC(=O)O [Leu-Gly, Leucyl-glycine] (H-Leu-Gly-OH)", 16),
    ("CC(C)C[C@H](NC(=O)[C@@H]1CCCN1C(=O)CN)C(=O)Nc1ccc2ccccc2c1 [Gly-Pro-Leu] (H-Gly-Pro-Leu-βNA)", 0),
    ("Cl.N=C(N)NCCC[C@H](NC(=O)CNC(=O)CNC(=O)OCc1ccccc1)C(=O)Nc1ccc2ccccc2c1", 44),
    ("NC(=O)[C@@H](N)CCC(=O)O", 0),
]

Which measured Aminopeptidase activity value corresponds to C[C@H](N)C(=O)N[C@@H](C)C(=O)N[C@@H](Cc1ccccc1)C(=O)Nc1ccc2ccccc2c1 [Ala-Ala-Phe] (H-Ala-Ala-Phe-βNA) ?
0

Entry CSCCC(N)C(=O)Nc1ccc2ccccc2c1 (racemic) : reported Aminopeptidase activity = ?
0

###

System: Bacteroides gingivalis
Assay type: biochemical
CONDITION: strain 9-14K-1; β-naphthylamine liberated after 60 minutes, 37° C.
Peptide text beside a SMILES is read from it. * marks the point of attachment. βNA = c1ccc2cc(N*)ccc2c1
Overview of reported Aminopeptidase activity across a group of compounds:

# COMPOUND, Aminopeptidase activity
measured = [
    ("C[C@H](N)C(=O)N[C@@H](C)C(=O)N[C@@H](Cc1ccccc1)C(=O)Nc1ccc2ccccc2c1 [Ala-Ala-Phe] (H-Ala-Ala-Phe-βNA)", "0 nmol"),
]

What reported Aminopeptidase activity corresponds to CSCCC(N)C(=O)Nc1ccc2ccccc2c1 (racemic) on Bacteroides gingivalis?
0 nmol

# value lookup — system Bacteroides gingivalis, readout Aminopeptidase activity, item CC(C)C[C@H](NC(=O)[C@@H]1CCCN1C(=O)CN)C(=O)Nc1ccc2ccccc2c1 [Gly-Pro-Leu] (H-Gly-Pro-Leu-βNA)
0 nmol

What is its Aminopeptidase activity for Bacteroides gingivalis? Entry: NC(=O)[C@@H](N)CCC(=O)O
0 nmol

Please provide the recorded Aminopeptidase activity for Cl.N=C(N)NCCC[C@H](NC(=O)CNC(=O)CNC(=O)OCc1ccccc1)C(=O)Nc1ccc2ccccc2c1 , tested on Bacteroides gingivalis.
61 nmol

Request body: readout Aminopeptidase activity, system Bacteroides gingivalis, query CC(C)C[C@H](N)C(=O)NCC(=O)O [Leu-Gly, Leucyl-glycine] (H-Leu-Gly-OH) . Return the value.
6 nmol

###

Test system: B. levii
Type: biochemical
CONDITION: strain 18-1-5; β-naphthylamine liberated after 60 minutes, 37° C.
Peptide text beside a SMILES is read from it. * marks the point of attachment. βNA = c1ccc2cc(N*)ccc2c1
MEASURED ENDPOINT: Aminopeptidase activity (nmol)
Answer format: numeric, nmol implied, no suffix.

The cases that follow already have their Aminopeptidase activity on record.
# MOLECULE, MEASURED ENDPOINT, OBSERVED VALUE
rows = [
    ("C[C@H](N)C(=O)N[C@@H](C)C(=O)N[C@@H](Cc1ccccc1)C(=O)Nc1ccc2ccccc2c1 [Ala-Ala-Phe] (H-Ala-Ala-Phe-βNA)", "Aminopeptidase activity", 0),
    ("NC(=O)[C@@H](N)CCC(=O)O", "Aminopeptidase activity", 0),
]

Bench note: what Aminopeptidase activity did CSCCC(N)C(=O)Nc1ccc2ccccc2c1 (racemic) show?
0

What does the record list as Aminopeptidase activity for CC(C)C[C@H](N)C(=O)NCC(=O)O [Leu-Gly, Leucyl-glycine] (H-Leu-Gly-OH) ?
47

I would be grateful if you could share the reported Aminopeptidase activity for Cl.N=C(N)NCCC[C@H](NC(=O)CNC(=O)CNC(=O)OCc1ccccc1)C(=O)Nc1ccc2ccccc2c1 .
0

Aminopeptidase activity lookup needed for CC(C)C[C@H](NC(=O)[C@@H]1CCCN1C(=O)CN)C(=O)Nc1ccc2ccccc2c1 [Gly-Pro-Leu] (H-Gly-Pro-Leu-βNA) , thanks.
1

###

System: Actinobacillus actinomycetemcomitans
Type: biochemical
CONDITION: strain 67; β-naphthylamine liberated after 60 minutes, 37° C.
Peptide text beside a SMILES is read from it. * marks the point of attachment. βNA = c1ccc2cc(N*)ccc2c1
MEASURED ENDPOINT: Aminopeptidase activity (nmol)
State the answer as a number, implicitly in nmol.

These solved cases illustrate the format of a correct answer.
# COMPOUND, OBSERVED VALUE
rows = [
    ("Cl.N=C(N)NCCC[C@H](NC(=O)CNC(=O)CNC(=O)OCc1ccccc1)C(=O)Nc1ccc2ccccc2c1", 0),
    ("CC(C)C[C@H](N)C(=O)NCC(=O)O [Leu-Gly, Leucyl-glycine] (H-Leu-Gly-OH)", 2),
    ("C[C@H](N)C(=O)N[C@@H](C)C(=O)N[C@@H](Cc1ccccc1)C(=O)Nc1ccc2ccccc2c1 [Ala-Ala-Phe] (H-Ala-Ala-Phe-βNA)", 3),
    ("NC(=O)[C@@H](N)CCC(=O)O", 0),
    ("CC(C)C[C@H](NC(=O)[C@@H]1CCCN1C(=O)CN)C(=O)Nc1ccc2ccccc2c1 [Gly-Pro-Leu] (H-Gly-Pro-Leu-βNA)", 1),
]

Now look at this one.
Dear colleague, I am looking for the recorded Aminopeptidase activity of the following compound: CSCCC(N)C(=O)Nc1ccc2ccccc2c1 (racemic)
0

###

# maps each entry to its Aminopeptidase activity
Tested on: Bacteroides gingivalis
Format: biochemical
CONDITION: strain FAYE 19m-1; β-naphthylamine liberated after 60 minutes, 37° C.
Peptide text beside a SMILES is read from it. * marks the point of attachment. βNA = c1ccc2cc(N*)ccc2c1

Can you share its Aminopeptidase activity? I mean this molecule: NC(=O)[C@@H](N)CCC(=O)O
0 nmol

Would you kindly share the measured Aminopeptidase activity for CC(C)C[C@H](NC(=O)[C@@H]1CCCN1C(=O)CN)C(=O)Nc1ccc2ccccc2c1 [Gly-Pro-Leu] (H-Gly-Pro-Leu-βNA) ?
0 nmol

What value of Aminopeptidase activity has been recorded for this entry: CC(C)C[C@H](N)C(=O)NCC(=O)O [Leu-Gly, Leucyl-glycine] (H-Leu-Gly-OH)
6 nmol

# input molecule: Cl.N=C(N)NCCC[C@H](NC(=O)CNC(=O)CNC(=O)OCc1ccccc1)C(=O)Nc1ccc2ccccc2c1 ; wanted: its Aminopeptidase activity
143 nmol

Could you tell me which Aminopeptidase activity is on file for CSCCC(N)C(=O)Nc1ccc2ccccc2c1 (racemic) ?
0 nmol

GET /values?readout=Aminopeptidase activity&item= C[C@H](N)C(=O)N[C@@H](C)C(=O)N[C@@H](Cc1ccccc1)C(=O)Nc1ccc2ccccc2c1 [Ala-Ala-Phe] (H-Ala-Ala-Phe-βNA)
3 nmol

###

Tested on: B. intermedius
PROCEDURE TEXT: Aminopeptidase activity on β-naphthylamide substrates
Type: biochemical
CONDITION: strain ATCC 25611; β-naphthylamine liberated after 60 minutes, 37° C.
Peptide text beside a SMILES is read from it. * marks the point of attachment. βNA = c1ccc2cc(N*)ccc2c1
MEASURED ENDPOINT: Aminopeptidase activity (nmol)
# value in nmol; strip the unit string

# MOLECULE, OBSERVED VALUE
data = [
    ("CC(C)C[C@H](N)C(=O)NCC(=O)O [Leu-Gly, Leucyl-glycine] (H-Leu-Gly-OH)", 10),
    ("CC(C)C[C@H](NC(=O)[C@@H]1CCCN1C(=O)CN)C(=O)Nc1ccc2ccccc2c1 [Gly-Pro-Leu] (H-Gly-Pro-Leu-βNA)", 0),
    ("C[C@H](N)C(=O)N[C@@H](C)C(=O)N[C@@H](Cc1ccccc1)C(=O)Nc1ccc2ccccc2c1 [Ala-Ala-Phe] (H-Ala-Ala-Phe-βNA)", 0),
]

Requested field: Aminopeptidase activity. Item: CSCCC(N)C(=O)Nc1ccc2ccccc2c1 (racemic)
0

###

Tested on: B. loescheii
Type: biochemical
CONDITION: strain ATCC 15930; β-naphthylamine liberated after 60 minutes, 37° C.
Peptide text beside a SMILES is read from it. * marks the point of attachment. βNA = c1ccc2cc(N*)ccc2c1
The following compounds are shown together with reported Aminopeptidase activity values.
# include the unit after the value

Study these solved cases before continuing.
# COMPOUND, Aminopeptidase activity
rows = [
    ("CC(C)C[C@H](N)C(=O)NCC(=O)O [Leu-Gly, Leucyl-glycine] (H-Leu-Gly-OH)", "20 nmol"),
    ("CSCCC(N)C(=O)Nc1ccc2ccccc2c1 (racemic)", "0 nmol"),
    ("C[C@H](N)C(=O)N[C@@H](C)C(=O)N[C@@H](Cc1ccccc1)C(=O)Nc1ccc2ccccc2c1 [Ala-Ala-Phe] (H-Ala-Ala-Phe-βNA)", "1 nmol"),
    ("CC(C)C[C@H](NC(=O)[C@@H]1CCCN1C(=O)CN)C(=O)Nc1ccc2ccccc2c1 [Gly-Pro-Leu] (H-Gly-Pro-Leu-βNA)", "1 nmol"),
    ("NC(=O)[C@@H](N)CCC(=O)O", "0 nmol"),
]

Here's the next entry for you.
Please report the recorded Aminopeptidase activity for Cl.N=C(N)NCCC[C@H](NC(=O)CNC(=O)CNC(=O)OCc1ccccc1)C(=O)Nc1ccc2ccccc2c1 .
1 nmol
